Origin of measurements: PubChem BioAssay (NCI)

Test system: NCI/ADR-RES ovarian
assay_method_text: NCI-60 one-dose screen, 48 h
assay_setup: 10 µM unless noted
This is part of a sample that, as a whole, favours compounds with a hit. Of some 83,000 tested, about 20% had one in any assay. Active and inactive are the calls of the source. How the source made its calls: active means growth percent below 10; inactive means the rest.
Reply using exactly one outcome from true (1) (active), false (0) (inactive)

compound	class_assignment
CCCCCCCCCCN=C(N)N=C(N)N	false (0)

Which outcome was assigned to c1ccc(-c2nn(-c3ccccc3)[n+](-c3ccccc3-c3ccccc3)n2)cc1 in this test?
false (0)

====

Test system: MDA-MB-231 breast
assay_method_text: NCI-60 one-dose screen, 48 h (100 = growth as untreated, 0 = no growth, -100 = all killed)
assay_setup: 10 µM unless noted
Description: Cells are grown in 96 well plates and exposed to the test compound for 48 hours. Compounds are tested at a single concentration, which is 10^-5 M for most compounds. The reported endpoint is percent growth (GI% or GIPRCNT), where numbers from 0 - 100% represent growth inhibition, and numbers from -100% - 0 represent cell death. For example, a value of 40 represents 60% growth inhibition. A value of 0 means no net growth occurred over the course of the experiment. […]
This is part of a sample that, as a whole, favours compounds with a hit. Of some 83,000 tested, about 20% had one in any assay.
Respond with Fulfilled for growth values of 90% and above, Not fulfilled for values below.

Worked examples follow.
                                   compound             target  class_assignment
0  CC(=O)c1c(-c2ccc(OC(F)(F)F)cc2)nc2ccccn12  MDA-MB-231 breast         Fulfilled
1             c1ccc(CCSc2ncnc3nc[nH]c23)cc1  MDA-MB-231 breast     Not fulfilled
2                O=C(O)CCCCCCCCCCCCCCC(=O)O  MDA-MB-231 breast         Fulfilled

Could you please find out whether Fc1ccc(C2CC(c3cccc(Nc4ccncc4)c3)=NN2c2ccccc2)cc1 (stereo not given) has growth that meets 90% or exceeds it?
Not fulfilled

Could you please find out whether O=C(Cc1ccc(/C=C/C(=O)c2ncc[nH]2)cc1)Nc1ccc(C(F)(F)F)cc1 has growth that meets 90% or exceeds it?
Not fulfilled

Could you please find out whether CCC1(CC)NC(=O)c2c(c3ccc(Cl)c(Cl)c3n2C)C1C#N (stereo not given) has growth that meets 90% or exceeds it?
Not fulfilled

Could you please find out whether COc1cc(Nc2cc(O)c3c(=O)cc(-c4ccccc4)oc3c2)cc(OC)c1 has growth that meets 90% or exceeds it?
Not fulfilled

====

System: MALME-3M melanoma
assay_method_text: NCI-60 one-dose screen, 48 h (100 = growth as untreated, 0 = no growth, -100 = all killed)
assay_setup: 10 µM unless noted
The panel holds about 83,000 compounds, 20% with a hit somewhere; the sample as a whole holds those more often.
Could you please report measured growth for the items listed next?
Numbers only, in %.

In [3]: df
Out[3]:
                            chemical_string  quantitative_readout
0  COc1ccc2c(c1)c(CC(=O)NCCOCCOCC(=O)Nc1ccc(OC)c(C(N)=O)c1O)c(C)n2C(=O)c1ccc(Cl)cc1                   118
1  NC(=O)C1(N2CCCCC2)CCN(CCCC(=O)c2ccc(F)cc2)CC1                  57.1
2         CN1C(=O)N(C)[C@H]2NC(NN)=N[C@H]21                  94.3
3  COc1cccc(CCC(=O)c2cc3c(N)c(C(=O)Nc4cccc(Cl)c4C)sc3nc2C)c1                  41.3

Turning to the following compound.
Any idea what growth was measured for COc1cc(NCCCN(CC(C)C)CC(C)C)c2ncccc2c1 ?
102

====

Tested on: NCI/ADR-RES ovarian
assay_method_text: NCI-60 one-dose screen, 48 h (100 = growth as untreated, 0 = no growth, -100 = all killed)
assay_setup: 10 µM unless noted
The panel holds about 83,000 compounds, 20% with a hit somewhere; the sample as a whole holds those more often. The source made the active and inactive calls. Rule for the calls: active = growth percent below 10; inactive = the rest.
endpoint_label: growth

                                   compound  endpoint_label            result
0  Clc1ccc(C2CC(c3cccc(Nc4ccncc4)c3)=NN2c2cc(Cl)cc(Cl)c2)cc1 (stereo not given)          growth  68.3% (inactive)
1  CC1(C)CC[C@]2(C(=O)NCC#CCN3CCOCC3)CC[C@]3(C)C(=CC[C@@H]4[C@@]5(C)Cc6c([nH]c7ccccc67)C(C)(C)[C@@H]5CC[C@]43C)[C@@H]2C1          growth    97% (inactive)
2  Cc1c(C2=CCCCC2)c2ccccn2c1C(=O)c1cccc(S(=O)(=O)N2CCOCC2)c1          growth  60.5% (inactive)
3  CN1CCN(C(=O)OCc2nc3c(N4CCOCC4)nc(-c4ccccc4)nc3n2C)CC1          growth   -16.2% (active)

Any idea what growth was measured for CC1=CC[C@@H]2CC[C@]3(C)[C@H](CC[C@@H]4[C@@]5(C)CCCNC(C)(C)[C@@H]5CC[C@]43C)[C@H]2[C@@H]1C ?
-45.1% (active)

====

Tested on: EKVX NSCLC
assay_method_text: NCI-60 one-dose screen, 48 h (100 = growth as untreated, 0 = no growth, -100 = all killed)
assay_setup: 10 µM unless noted
About 83,000 compounds went through this panel and 20% of them were active in at least one assay; those are over-represented in the sample as a whole.
Strictly below 30% in growth: Fulfilled. Otherwise: Not fulfilled.

Worked examples follow.
>>> print(df.to_string())
                                   molecule  class_assignment
0  O=C(N=Nc1c(O)[nH]c2ccc(F)cc12)c1cc2ccccc2[nH]1     Not fulfilled
1       CCN(CC)CCSCCCNc1c(C)cnc2cc(Cl)ccc12     Not fulfilled
2  CC[C@H](CC[C@@H](C)[C@H]1CC[C@H]2[C@@H]3CC=C4C[C@@H](OCCc5nn[nH]n5)CC[C@]4(C)[C@H]3CC[C@]12C)C(C)C     Not fulfilled

Is it true that growth reported for CC(=O)Nc1ccc(S(=O)(=O)NC2CCCCC2)cc1 is less than 30%?
Not fulfilled

Is it true that growth reported for CC(=O)OCC(=O)C1(O)C(C)CC2C3C=C(C)C4=Cc5c(cnn5-c5ccccc5)CC4(C)C3C(O)CC21C (centres undefined) is less than 30%?
Fulfilled

Is it true that growth reported for COc1ccc(-c2c(-c3ccccc3)noc2N)cc1OC is less than 30%?
Not fulfilled

Is it true that growth reported for Fc1cc(C2=NNC(c3ccc[nH]3)C2)ccc1-n1ccc(C(F)(F)F)n1 (centres undefined) is less than 30%?
Not fulfilled

Is it true that growth reported for COc1ccc(Cl)cc1NC(=O)c1c(NC(=O)C(F)(F)C(F)(F)F)sc2c1CCCCC2 is less than 30%?
Fulfilled

Is it true that growth reported for O=C1c2ccccc2-c2c1c1c(NCCCO)nc3ccccc3c1n2Cc1ccccc1 is less than 30%?
Fulfilled

====

Could you please report measured growth for the items listed next?
Test system: SNB-19 CNS
assay_method_text: NCI-60 one-dose screen, 48 h (100 = growth as untreated, 0 = no growth, -100 = all killed)
assay_setup: 10 µM unless noted
About 83,000 compounds went through this panel and 20% of them were active in at least one assay; those are over-represented in the sample as a whole.
One number for each entry, in %.

Some compounds with known growth results, for comparison:
>>> df
                                   compound  endpoint_label  unit_tag  quantitative_readout
0  CN1CCN(c2c(F)cc(NC3=C(Cl)C(=O)c4ncccc4C3=O)cc2F)CC1          growth         %                   101
1  CC1CCN(C(=O)OCc2nc3nc(Cl)nc(N4CCOCC4)c3[nH]2)CC1          growth         %                  60.3
2  O=C(CN1CCOCC1)Nc1ccc2ncnc(Nc3ccc(Oc4cccc(F)c4)c(Cl)c3)c2c1          growth         %                  73.2
3  O=C1c2ccccc2-c2c1c1c(NCCCO)nc3ccccc3c1n2Cc1ccccc1          growth         %                  16.7
4  COc1cccc(/C=C2\COc3ccc(-c4ccccc4)cc3C2=O)c1          growth         %                  64.7
5  COc1cc(C2CC(c3cccc(Nc4ccncc4)c3)=NN2C(C)=O)cc(OC)c1OC (stereo not given)          growth         %                    93
6  Cc1ccc(C(=O)Nc2ccccc2C(=O)N/N=C(\c2ccccc2)c2ccccn2)cc1          growth         %                  26.2
7  COc1ccc(NC(=O)c2sc3nc(C)c(C(=O)CCc4cccc(OC)c4)cc3c2N)cc1          growth         %                  73.5
8  O=C(NCCc1ccccn1)OCc1nc2nc(Cl)nc(N3CCOCC3)c2[nH]1          growth         %                  37.2

Turning to the following compound.
Any idea what growth was measured for Cn1c(COC(=O)NCCc2ccccn2)nc2c(N3CCOCC3)nc(Cl)nc21 ?
60.6
